B1: Mineralocorticoid receptor, residues 600 to 675; numbered along this chain, P08235 (parent)
chain: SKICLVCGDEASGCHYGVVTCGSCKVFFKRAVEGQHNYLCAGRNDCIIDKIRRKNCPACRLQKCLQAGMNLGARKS

Variants of: B1
Assay: abundance fitness (aPCA) (normalised: wild type 0, dead -1); higher = more abundant; growth selection in yeast, the domain comes from the species named
Conditions: Homo sapiens
Where abundance fitness equals or exceeds -0.06, the correct label is class 1; where it does not, the label is class 0.

Observe how each entry below is paired with its result.
VARIANT: H36D
CAT: class 1
--
VARIANT: D9H
CAT: class 1
--
VARIANT: H15A
CAT: class 0
--
VARIANT: I3D
CAT: class 0
--
VARIANT: C56Y
CAT: class 0

Does the variant N55A have recorded abundance fitness that is -0.06 or more?
class 0

Does the variant D45P have recorded abundance fitness that is -0.06 or more?
class 0

Does the variant C40D have recorded abundance fitness that is -0.06 or more?
class 0
